Target: IRAK4 (Homo sapiens)
Sequence (Q9NWZ3 whole entry): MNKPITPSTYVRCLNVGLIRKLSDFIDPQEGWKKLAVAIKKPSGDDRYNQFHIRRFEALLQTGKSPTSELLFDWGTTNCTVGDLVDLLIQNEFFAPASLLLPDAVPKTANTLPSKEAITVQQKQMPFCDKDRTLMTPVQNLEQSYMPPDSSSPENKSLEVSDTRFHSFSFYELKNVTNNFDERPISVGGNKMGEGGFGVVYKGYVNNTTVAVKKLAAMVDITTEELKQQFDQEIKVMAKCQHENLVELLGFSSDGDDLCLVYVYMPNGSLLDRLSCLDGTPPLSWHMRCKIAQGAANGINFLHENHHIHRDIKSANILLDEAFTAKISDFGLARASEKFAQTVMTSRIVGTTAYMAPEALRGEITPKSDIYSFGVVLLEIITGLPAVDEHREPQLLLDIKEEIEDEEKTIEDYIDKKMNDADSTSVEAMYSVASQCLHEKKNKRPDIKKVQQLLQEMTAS
Assay: 2-hour 1 mM ATP IRAK4 Biochemical assay (as above, but with 100 pM IRAK4 and 1 mM ATP)
Conditions: IRAK4 MSD BIOCHEMICAL (1 mM ATP) IC50 (μM), 100 pM IRAK4, 2 hours
measuredEndpoint: IC50

I am curious: what IC50 value has been reported for CCOc1cc2nc(C(C)(C)CO)cn2cc1NC(=O)c1cccc(C(F)F)n1 [Example 17] ?
0.016 µM

I have this compound here, COc1c(NC(=O)c2cccc(C(F)F)n2)cn2cc(C3CCOCC3)nc2c1C [Example 427] , and I need its recorded IC50.
0.003 µM

Recorded IC50 of O=C(Nc1cn2cc(C3CCOCC3)nc2cc1Cl)c1cccc(C(F)F)n1 [Example 405, 2,2,2-trifluoroacetate] , please.
0.006 µM

Entry under review: CC1(COc2cc3nc(C[C@H]4CCOC4)cn3cc2NC(=O)c2cccc(C(F)(F)F)n2)COC1 (single isomer, unassigned) [Example 165] . Reported IC50?
0.006 µM
